The measured values listed here are drawn from PubChem BioAssay (NCI).

Tested on: DU-145 prostate
Assay: NCI-60 one-dose screen, 48 h (100 = growth as untreated, 0 = no growth, -100 = all killed)
Conditions: 10 µM unless noted
The panel holds about 83,000 compounds, 20% with a hit somewhere; the sample as a whole holds those more often.

compound	unit-tag	growth
CCCCCCCCCCOc1ccc(C(=O)Oc2ccc(CSP3(=O)OCC4OC(n5ccc(=O)[nH]c5=O)C(F)C4OP(=O)(O)OCC4OC(n5cnc6c(N)ncnc65)C(F)C4O3)cc2)cc1 (centres undefined)	%	106
CCC(C)(C)O	%	115
NC(=O)SCC(=O)Nc1ccc([As](=O)(O)O)cc1	%	101
CC12CCC(=O)C=C1C(O)CC1C2CCC2(C)C(O)CCC12 (centres undefined)	%	102

* * *

System: HL-60(TB) leukemia
Assay: NCI-60 one-dose screen, 48 h (100 = growth as untreated, 0 = no growth, -100 = all killed)
Conditions: 10 µM unless noted
The panel holds about 83,000 compounds, 20% with a hit somewhere; the sample as a whole holds those more often.
value-type: growth (%)

                                smiles_data  recorded_result
0  CC(C)[C@H](NC(=O)Cn1cc(C(=O)O)nn1)C(=O)O              123
1  Cc1c(N(C)CS(=O)(=O)O)c(=O)n(-c2ccccc2)n1C               96
2  COc1cc2c(cc1[N+](=O)[O-])-c1ccc([N+](=O)[O-])cc1/C2=N\O             89.5
3  Cc1n(Cc2ccc3ccccc3n2)cc[n+]1Cc1ccc2ccccc2n1             34.2
4                           CCOC(=O)CC(C)=N             93.9
5        CCOC(=O)/C(=C/c1ccc(OC)cc1)N(CC)CC               98

* * *

Test system: HL-60(TB) leukemia
Experiment: NCI-60 one-dose screen, 48 h (100 = growth as untreated, 0 = no growth, -100 = all killed)
Settings: 10 µM unless noted
Compounds without any hit were thinned out: in the full panel of roughly 83,000, 20% have a hit. Calls of active or inactive are those of the source. Rule for the calls: active = growth percent below 10; inactive = the rest.
value-type: growth

>>> df
                                smiles_data           recorded_result
0  Cc1cc(NC(=O)c2ccc(C)c(Nc3nccc(-c4cccnc4)n3)c2)cc(-n2cnc(C)c2)c1          22.8% (inactive)
1  [O-]/[N+](=C\c1ccc(-n2cc(Cc3ccccc3Cc3cn(-c4ccc(/C=[N+](/[O-])c5ccccc5)cc4)nn3)nn2)cc1)c1ccccc1          98.4% (inactive)
2  Fc1ccc2nc(-c3ccc(-c4noc(-c5ccc(Cl)cc5)n4)cc3)[nH]c2c1          88.7% (inactive)
3       CC(=O)Nc1ccc(Cc2ccc(NC(C)=O)cc2)cc1          49.1% (inactive)
4            O=C(/C=C/c1cccc(O)c1)c1ccccc1O            66% (inactive)
5                Cc1cc(SC#N)cc(C(C)(C)C)c1O          74.3% (inactive)
6       Clc1ccc(-c2noc(/C=C\c3ccccc3)n2)cc1            94% (inactive)
7  COC(=O)[C@H](Cc1cn(C)cn1)NC(=O)[C@H](Cc1c[nH]c2ccccc12)NC(=O)Nc1cc(C(F)(F)F)cc(C(F)(F)F)c1  -54.5% [100 µM] (active)
